experiment: Bioavailability study, blood plasma levels and AUC in dog; assay type: in vivo; conditions: po, 25 mg/kg, equimolar doses, 0-7 hours, read-out: AUC (Area under the curve value for 0-7 hours)
test_readout: AUC at 7 h (ng·h/mL)
Field format: number, assumed ng·h/mL, no unit text.

Prompt: Give its AUC at 7 h value. Item: CCCC(CCC)C(=O)O
Completion: 82300

###

test: Bioavailability study, blood plasma levels and AUC in dog; assay type: in vivo; conditions: po, 25 mg/kg, equimolar doses, 30 minutes after administration, read-out: peak blood plasma levels
test_readout: Cmax at 0.5 h (ng/g)
Express it in ng/g; write the number only.

Prompt: Cmax at 0.5 h for CCCC(CCC)C(=O)O ?
Completion: 65200
